Measured growth OD595 in M63-maltose, listed per entry for reference.
- targetSystem: T1, T25-HP0221 (NifU) (Helicobacter pylori strain 26695, UniProt O25009 2-326)
- T1 sequence (looked up): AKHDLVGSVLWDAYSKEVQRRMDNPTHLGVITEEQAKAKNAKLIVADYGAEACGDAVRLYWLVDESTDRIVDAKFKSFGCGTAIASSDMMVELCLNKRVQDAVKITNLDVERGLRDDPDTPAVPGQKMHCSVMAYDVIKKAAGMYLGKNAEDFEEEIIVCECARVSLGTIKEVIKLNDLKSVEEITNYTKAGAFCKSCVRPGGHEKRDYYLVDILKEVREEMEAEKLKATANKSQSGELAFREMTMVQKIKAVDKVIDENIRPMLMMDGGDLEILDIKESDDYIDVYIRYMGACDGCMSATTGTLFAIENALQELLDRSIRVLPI
- measurementProtocol: two-hybrid
Write the value in OD595 as a bare number.

T18-HP0207 (natural protein, Helicobacter pylori strain 26695, UniProt O24999 2-368, looked up) LTQEDVLNALKTIIYPNFEKDIVSFGFVKNITLHDDQLGLLIEIPSSSEETSAILRENISKAMQEKGVKALNLDIKTPPKPQAPKPTTKNLAKNIKHVVMISSGKGGVGKSTTSVNLSIALANLNQKVGLLDADVYGPNIPRMMGLQSADVIMDPSGKKLIPLKAFGVSVMSMGLLYDEGQSLIWRGPMLMRAIEQMLSDIIWGDLDVLVVDMPPGTGDAQLTLAQAVPLSAGITVTTPQIVSLDDAKRSLDMFKKLHIPIAGIVENMGSFVCEHCKKESEIFGSNSMSELLEAYHTQILAKLPLEPKVRLGGDRGEPIVISHPNSVSAKIFEKMAQDLSAFLERVKKEKLADNKDIQPTQTHACSH : 0.14
T18-HP1268 (natural protein, Helicobacter pylori strain 26695, UniProt O25858 2-220, looked up) AKQEYKQLPKRAEVHSATEQFKDTVKTSLGLDLFKGLGLTIKEFFSPSVTIHYPMEQLPLSPRYRAVHNLQRLLDSGSERCIGCGLCEKICTSNCIRIITHKGEDNRKKIDSYTINLGRCIYCGLCAEVCPELAIVMGNRFENASTQRSQYGSKSEFLTSEQDAKNCSHAEFLGFGAVSPNYNERMQATPLDYVQEPSKEESQEETPTNPESNKGDENV : 0.33

Turning now to a further record.
Q: Entry T18-HP0220 (natural protein, Helicobacter pylori strain 26695, UniProt O25008 2-387, looked up) LQRIYLDNNATTRIDPKVKEIMDPFLRDHYGNPSSLHQFGTETHPAIAEALDKLYKGINARDIDDVIITSCATESNNWVLKGVYFDECLKKGKNHIVTTVAEHPAVRSTCNFLESLGVEVTYLPINEHGSITAEQVKEAITEKTALVSVMWANNETGLIFPIEEIGAICKEKGVLFHTDAVQAIGKIPVDVLKANADFLSFSAHKFHGPKGIGGLYIRSGVGLTPLFHGGEHMNGRRSGTLNVPYIVGMGEAMKLAVEHLDYEKEVVGKLRDKLEEALLKIPDVMVVGDRIHRVPNTTLVSVRGIEGEAMLWDLNRSNIAASTGSACASEDLEANPVMVAIGASKELAHTAIRLSLSRFNTEAEIDKTIEVFSQAAVRLRNISSSY has what growth OD595 in M63-maltose?
Ans: 0.13
